Exercise: for every item that follows, state its recorded TGI.
Tested on: CCRF-CEM leukemia
Protocol description: NCI tumour cell line growth inhibition, 48 h

Illustrative cases are given below, each with its answer.
- Compound: "CCCCCCCCCCCC1=NC(C)(C)CN1C(C)(C)CO"
  Reported: "12.4 µM"
- Compound: "CC1C(NNC(N)=O)Oc2cc3c(cc2C1c1ccccc1O)OCO3 (stereo unspecified)"
  Reported: "54.5 µM"
- Compound: "COc1ccc(C2C3=C(N=C4SC(C(C)=O)=C(C)N42)c2ccccc2CC3)cc1 (stereo unspecified)"
  Reported: "> 100 µM"

Look at each compound and report its TGI.
1. COc1cccc(N=N/C(=N/NC(=O)c2ccc(C)cc2)c2ccc(N(CCC#N)CCC#N)cc2OC)c1
2. C=CO/N=[N+](\[O-])N(CC)CC
3. O=c1[nH]c(=O)n(C2CC(O)C(CO)O2)cc1Oc1ccccc1 (stereo unspecified)

Result string:
> 100 µM
> 100 µM
> 100 µM

====

Test system: MCF7 breast
Protocol description: NCI tumour cell line growth inhibition, 48 h
Experimental endpoint: TGI

Here's what some known entries look like.
- Molecule: "O=S(=O)(NC1CCCCC1)c1ccc2c(c1)OCCOCCOCCOCCO2"
  Measurement target: "MCF7 breast"
  TGI: "> 100 µM"
- Molecule: "COC(C)(C)[C@@H](O)[C@H](O)C[C@H](C)C1=C2CC[C@@H]3[C@@]4(C)CC[C@@H](OC(C)=O)C(C)(C)[C@@H]4C[C@@H](OC4OC(COC(C)=O)C(O)C(O)C4O)[C@@]3(C)[C@]2(C)CC1 (some centres undefined)"
  Measurement target: "MCF7 breast"
  TGI: "12.4 µM"
- Molecule: "COC(=O)c1ccccc1C1CN=NC12Cc1c(ccc3c1CCC3)C2=O (centres undefined)"
  Measurement target: "MCF7 breast"
  TGI: "> 100 µM"

Please examine the following record next.
Query string: Identify the reported TGI for the following entry. C=CC(=O)N1CCC(c2ccc(C(N)=O)c(-c3ccc(Oc4ccccc4)cc3)n2)CC1
Result string: > 100 µM

====

Test system: UACC-257 melanoma
Protocol description: NCI tumour cell line growth inhibition, 48 h
Experimental endpoint: TGI (µM)
One number for each entry, in µM.

- Chem smiles: "C=CC(=O)N1C/C(=C\\c2ccc(Cl)c(Cl)c2)C(=O)/C(=C/c2ccc(Cl)c(Cl)c2)C1"
  Measurement units: "µM"
  TGI: 1.57

Query string: State TGI (UACC-257 melanoma) of O=c1cccccc1[O-].O=c1cccccc1[O-].O=c1cccccc1[O-].[Eu+3] .
Result string: 99.6

====

System: NCI-H23 lung
Protocol description: NCI tumour cell line growth inhibition, 48 h; in the data active = GI50 below about 0.43 µM; inactive = the rest
Respond with a class label; see yes (1) for active, no (0) for inactive

Before answering, review these 6 worked examples.
- Chem smiles: "C/C(=C\\c1ccn(-c2ccccc2N)n1)[C@@H]1C[C@@H]2O[C@]2(C)CCC[C@H](C)[C@H](O)[C@@H](C)C(=O)C(C)(C)[C@@H](O)CC(=O)O1"
  Assigned label: "yes (1)"
- Chem smiles: "O=c1c2cc(C(F)(F)F)ccc2sc2c(NCCCNCCO)nc3ccccc3c12"
  Assigned label: "no (0)"
- Chem smiles: "COc1ccc2c(c1)[n+](=O)c(C(=O)c1cccs1)c(C(F)(F)F)n2[O-]"
  Assigned label: "no (0)"
- Chem smiles: "Cc1ccc(/C=C(\\C#N)c2cc3ccccc3n2C)cc1"
  Assigned label: "no (0)"
- Chem smiles: "COc1cc2c3c(n(CCCN)c(=O)c2cc1OC)-c1ccc([N+](=O)[O-])cc1C3=O"
  Assigned label: "no (0)"
- Chem smiles: "COc1ccc2c(c1)nc(NNC(=O)c1cnccn1)c1cccn12"
  Assigned label: "no (0)"

Consider now this further molecule.
Query string: Recorded test call requested for O=C(/C=C(\O)C(=O)O)/C=C(\O)c1ccccc1
Result string: no (0)

====

Test system: CAKI-1 renal
Protocol description: NCI tumour cell line growth inhibition, 48 h
What TGI was measured for each of the following?
Answers are plain numbers, in µM.

- Chem smiles: "COC(=O)c1cc(-c2ccccc2)[nH]c1N/N=C/c1c(Cl)cccc1Cl"
  Measurement units: "µM"
  Reported: 4.39

For each of the compounds below, note its TGI.
1. O=c1c2cc(C(F)(F)F)ccc2sc2c(NCCCNCCO)nc3ccccc3c12
2. CCC[CH2][Sn]([CH2]CCC)([O]C(=O)c1cc(OC)c(OC)cc1OC)[O][Sn]([CH2]CCC)([CH2]CCC)[O]C(=O)c1cc(OC)c(OC)cc1OC

Result string:
2.81
0.686

====

Please respond with reported TGI for every item in the list.
Tested on: SK-OV-3 ovarian
Protocol description: NCI tumour cell line growth inhibition, 48 h

Dear colleague, could you send me TGI for each of the items below? Thanks.
1. C=CO/N=[N+](\[O-])N(CC)CC
2. ClC(Cl)=C(Cl)C1(Cl)CC1COCc1ccccc1 (stereo not given)
3. N#C/C(=C/C=C/c1ccco1)C(N)=O
4. Cc1cc(S(=O)(=O)Nc2nc3ncccc3[nH]2)c(S)cc1Cl
5. CN1/C(=C/C=C/C=C/C=C2C(=O)c3ccccc3C2=O)C(C)(C)c2ccccc21
6. COc1ccc(/C=C(/c2ccccc2)[N+](=O)[O-])c(OC)c1
7. CC1CC/C(=C\c2ccc(F)cc2)C2=C1C(c1ccc(F)cc1)N1C(=O)CSC1=N2 (stereo not given)

Result string:
1: > 100 µM; 2: > 100 µM; 3: > 10 µM; 4: > 100 µM; 5: > 100 µM; 6: 9.57 µM; 7: > 100 µM

Record TGI per entry; entries follow.
1. O=c1[nH]c(=O)n(C2CC(O)C(CO)O2)cc1Oc1ccccc1 (stereo not given)
2. N#CC(CCN1CCC(Nc2ccccc2)(c2nnnn2C2CCCCC2)CC1)(c1ccccc1)c1ccccc1
3. C[C@]12CC[C@H]3[C@@H](CCC4=CC(=O)C=C[C@@]43OC(=O)C(F)(F)F)[C@@H]1CCC2=O

Result string:
["> 100 µM", "> 100 µM", "> 100 µM"]

====

Test system: T-47D breast
Protocol description: NCI tumour cell line growth inhibition, 48 h
Experimental endpoint: TGI

Here's what some known entries look like.
- Compound: "COc1cc(-c2nc3ccccc3s2)ccc1OCCCCOc1cc2c(cc1OC)C(=O)N1CCC[C@H]1C=N2"
  Measurement target: "T-47D breast"
  Reported: "2.03 µM"
- Compound: "COc1ccc(C(=O)Cn2c(C(=O)c3ccccc3)nc3ccccc32)cc1"
  Measurement target: "T-47D breast"
  Reported: "> 100 µM"
- Compound: "c1nc(NCCc2cnc[nH]2)c2[nH]cnc2n1"
  Measurement target: "T-47D breast"
  Reported: "> 100 µM"
- Compound: "CC1CC/C(=C\\c2ccc(F)cc2)C2=C1C(c1ccc(F)cc1)N1C(=O)CSC1=N2 (stereo unspecified)"
  Measurement target: "T-47D breast"
  Reported: "> 100 µM"
- Compound: "CSC(=S)Nc1cc(C)cc(C)n1"
  Measurement target: "T-47D breast"
  Reported: "> 31.6 µM"

Hi, could you look up TGI for each item in my list?
1. C(/C=N/NC1=NCCCCN1)=N\NC1=NCCCCN1
2. CN1C(=O)c2ccc3ccccc3c2C1=O

Result string:
["> 100 µM", "> 100 µM"]

Each compound below has a reported value. Please supply its TGI.
1. COC(=O)[C@@H]1CS(=O)(=O)C(C(C)C)N1C(C)=O (stereo partly specified)
2. CCOC(=O)c1ccc(Nc2nc3ccccc3nc2-c2cccs2)cc1

Result string:
1: > 100 µM; 2: 56.2 µM

Give TGI for each of the items listed below.
1. Cc1ccc(S(=O)(=O)NC(CCC(=O)NNc2ccccc2)C(=O)NNc2ccccc2)cc1 (stereo unspecified)
2. COc1cc2c3c(n(CCCN)c(=O)c2cc1OC)-c1ccc([N+](=O)[O-])cc1C3=O

Result string:
> 100 µM
20.2 µM

====

Tested on: OVCAR-8 ovarian
Protocol description: NCI tumour cell line growth inhibition, 48 h
Assignment: determine reported GI50 for the given compounds.

Some compounds with recorded GI50:
- Compound: "Nc1ccn(C2CC(F)C(CO)O2)c(=O)n1 (centres undefined)"
  Reported: "> 100 µM"
- Compound: "c1ccc(-c2nn3c(c2-c2ccnc4cc(OCCN5CCOCC5)ccc24)CCC3)nc1"
  Reported: "> 82.6 µM"
- Compound: "Cc1ccc(S(=O)(=O)Oc2ccc3c4c(c(=O)oc3c2)CCCCCC4)cc1"
  Reported: "> 100 µM"

# context switch: different compound, same GI50
Query string: Read off the recorded GI50 for O=C(NCCN1CCOCC1)OCc1nc2nc(Cl)nc(N3CCOCC3)c2[nH]1
Result string: 2.09 µM

The values you see were collected from PubChem BioAssay (NCI).
